Every entry's value here was drawn from ChEMBL document CHEMBL4837183.

Known GI50 of a selection of compounds
test system: CCRF-CEM; test: Growth inhibition of human CCRF-CEM cells measured after 48 hrs by SRB assay; assay type: functional
MEASURED_PROPERTY: GI50 (nM)

| MOLECULE_SMILES | TARGET_DESC | MEASUREMENT_UNITS | RESULT_VALUE |
| --- | --- | --- | --- |
| C[C@]12CC[C@H]3[C@@H](CC[C@H]4C[C@@H](O)CC[C@@]43C=O)[C@@]1(O)CC[C@@H]2c1ccc(=O)oc1 | CCRF-CEM | nM | 1070 |
| C[C@]12CC[C@H](O)C=C1CC[C@@H]1[C@@H]2[C@@H](O)C[C@]2(C)[C@@H](c3ccc(=O)oc3)CC[C@]12O | CCRF-CEM | nM | 588 |
| CCO[C@H]1C=C2CC[C@@H]3[C@H]([C@@H](O)C[C@]4(C)[C@@H](c5ccc(=O)oc5)CC[C@]34O)[C@@]2(C)CC1 | CCRF-CEM | nM | 233 |
| C[C@]12CC[C@H](O[C@@H]3O[C@H](CO)[C@@H](O)[C@H](O)[C@H]3O)C=C1CC[C@@H]1[C@@H]2[C@@H](O)C[C@]2(C)[C@@H](c3ccc(=O)oc3)CC[C@]12O | CCRF-CEM | nM | 16 |
